System: primary HIV-1 strains, including the X4, R5, and X4R5 strains
measurement.protocol: Anti-HIV-1 activity, panel of primary HIV-1 strains
Type: cell-based
particulars: Human immunodeficiency virus 1; range over X4, R5 and X4R5 primary strains; read-out: EC50 values against all tested representative primary HIV-1 strains
pEC50: −log10 of the molar value.
property.measured: pEC50

Query: Request the reported pEC50 associated with Cc1cc(/C=C2\SC(=S)N(Cc3ccccc3C(F)(F)F)C2=O)c(C)n1-c1ccc(O)c(C(=O)O)c1 [NSPD-12m]
Response: 5.16 to 5.69

---

measurement.protocol: XTT assay, U87-CD4-CCR5 cells
Type: cell-based
particulars: human
property.measured: CC50 at 3 days (µM)
Numbers only, in µM.

Query: Request the reported CC50 at 3 days associated with Cc1cc(/C=C2\SC(=S)N(Cc3ccccc3C(F)(F)F)C2=O)c(C)n1-c1ccc(O)c(C(=O)O)c1 [NSPD-12m]
Response: 84.7
